- Assay Remarks: In vitro mouse hepatocytic intrinsic clearance
- Condition Info: male, CD-1, mouse, hepatocytes
Quantity Measured: half-life at 5 μM (min)
Answers are plain numbers, in min.

Here are 3 molecules together with their reported answers.
CN(C)CCc1c[nH]c2ccccc12 [SPL026, N,N-dimethyltryptamine, reference compound]    15.3
NCc1ccccc1 [Benzylamine, reference compound]    14.3
O=C(O)Cc1ccccc1Nc1c(Cl)cccc1Cl [Diclofenac, reference compound]    34.1

Please look at the following molecule next.
half-life at 5 μM reported for this molecule NCCc1c[nH]c2ccc(O)cc12 [Serotonin, reference compound] : 22.8

###

- Tested on: human (mixed gender) hepatocytes
- Assay Remarks: In vitro intrinsic clearance in human hepatocytes with and without MAO-A/B inhibitor combination (first experiment)
- Condition Info: human hepatocytes, with 100 nM clorgyline + 100 nM deprenyl/selegiline (Table 3)
Quantity Measured: Intrinsic clearance, with inhibitors
# do not omit the unit; it follows the number

Please review the entries below; each comes with its answer.
[2H]C([2H])(Cc1c[nH]c2ccccc12)N(C)C [SPL028v]    9.51 μL/min/million cells
CN(C)CCc1c[nH]c2ccccc12 [SPL026, N,N-dimethyltryptamine, reference compound]    13.24 μL/min/million cells
NCCc1c[nH]c2ccc(O)cc12 [Serotonin, reference compound]    10.10 μL/min/million cells

Continue with the compound presented below.
Consider [2H]C([2H])(Cc1c[nH]c2ccccc12)N(C)C [SPL028iii] . Its measured Intrinsic clearance, with inhibitors is 6.90 μL/min/million cells
